- Test system: OVCAR-3
- ASSAY: NCI SRB assay
- Format: cell-based, human
- EXPERIMENTAL SETUP: OVCAR-3, 1.00E-5 Molar
Outcome: TRUE for Growth Percent of at least 80%; FALSE for anything lower.

Prompt: Does the compound "Cc1ccc(-c2nc(Nc3ccccc3C(=O)O)c3ccccc3n2)cc1" have recorded Growth Percent that is 80% or more?
Response: FALSE

Prompt: # iterate: "Cc1cccc(-c2nc(Nc3ccccc3C(=O)O)c3ccccc3n2)c1"
Response: FALSE

Prompt: # iterate: "Cc1cccc(-c2nc(Nc3ccc(C(=O)O)cc3)c3ccccc3n2)c1"
Response: TRUE

Prompt: # iterate: "COc1ccc(-c2nc(Nc3ccccc3C(=O)O)c3ccccc3n2)cc1"
Response: FALSE

Prompt: # iterate: "Cc1ccc(-c2nc(Nc3cccc(C(=O)O)c3)c3ccccc3n2)cc1"
Response: TRUE

###

- Tested on: A498
- ASSAY: NCI SRB assay
- Format: cell-based, human
- EXPERIMENTAL SETUP: A498, 5-dose; read-out: LC50 (the source's name)
PARAMETER MEASURED: CC50

Prompt: # get_value(readout= CC50, system= A498) for Cc1ccc(-c2nc(Nc3ccccc3C(=O)O)c3ccccc3n2)cc1 [6b]
Response: < 100 µM

###

- Test system: HCT-15
- ASSAY: NCI SRB assay
- Type: cell-based, human
- EXPERIMENTAL SETUP: HCT-15, 5-dose
PARAMETER MEASURED: LC50

Prompt: # get_value(readout= LC50, system= HCT-15) for Cc1ccc(-c2nc(Nc3ccccc3C(=O)O)c3ccccc3n2)cc1 [6b]
Response: < 100 µM

###

- System: HOP-62
- ASSAY: NCI SRB assay
- Format: cell-based, human
- EXPERIMENTAL SETUP: HOP-62, 10 μM
PARAMETER MEASURED: GI% (%)
Number in %, nothing else.

Previously resolved entries follow.
INSERT INTO assay_data (structure_smiles_string, result) VALUES
  ('Cc1cccc(-c2nc(Nc3ccccc3C(=O)O)c3ccccc3n2)c1', 54),
  ('COc1ccc(-c2nc(Nc3ccccc3C(=O)O)c3ccccc3n2)cc1', 49);

API: the following record is the query input.
Prompt: Reported GI%, molecule "Cc1ccc(-c2nc(Nc3ccccc3C(=O)O)c3ccccc3n2)cc1" : ____
Response: 72

###

- Tested on: TK-10
- ASSAY: NCI SRB assay
- Assay type: cell-based, human
- EXPERIMENTAL SETUP: TK-10, 1.00E-5 Molar
Entries and their Growth Percent values follow.
Number in %, nothing else.

INSERT INTO measurements (structure_smiles_string, parameter_measured, result) VALUES
  ('Cc1ccc(-c2nc(Nc3ccc(C(=O)O)cc3)c3ccccc3n2)cc1', 'Growth Percent', 113.38),
  ('COc1ccc(-c2nc(Nc3ccccc3C(=O)O)c3ccccc3n2)cc1', 'Growth Percent', 74.99),
  ('Cc1ccc(-c2nc(Nc3ccccc3C(=O)O)c3ccccc3n2)cc1', 'Growth Percent', 58.93),
  ('Cc1cccc(-c2nc(Nc3ccccc3C(=O)O)c3ccccc3n2)c1', 'Growth Percent', 85.85),
  ('Cc1cccc(-c2nc(Nc3ccc(C(=O)O)cc3)c3ccccc3n2)c1', 'Growth Percent', 91.50);

API: the following record is the query input.
Prompt: Reported Growth Percent, compound "Cc1ccc(-c2nc(Nc3cccc(C(=O)O)c3)c3ccccc3n2)cc1" : ____
Response: 115.15
